test: Treatment of sulfides in municipal wastewater with ferric chelants and hydrogen peroxide; details: after 30 minutes, 2.5:1.0 ratio of peroxide to sulfide
result type: Percentage of Sulfide Treated, Dose 2 10 ppm Chelant 105.8 ppm H2O2

| compound | reported result |
| --- | --- |
| O=C([O-])CC(O)(CC(=O)[O-])C(=O)[O-].[Fe+3] [Ferric Citrate] | 69.5 |
| O=C([O-])CN(CCO)CC(=O)[O-].[Fe+3] | 66.9 |
| O=C([O-])CN(CCN(CC(=O)[O-])CC(=O)[O-])CC(=O)[O-].[Fe+3] | 83.7 |
| O=C([O-])CN(CC(=O)[O-])CC(=O)[O-].[Fe+3] | 90.0 |
